Test system: E. coli K-12
testDescription: antimicrobial activity (MIC), Table I
Format: cell-based
conditionsUsed: Escherichia coli, K12; E. coli K-12; read-out: MIC
In this section we review reported MIC values for a set of molecules.
parameterMeasured: MIC

1) CCC1OC(=O)CC(O)C(C)C(OC2OC(C)C(O)C(N(C)C)C2O)C(CC=O)CC(C)C(=O)C=CC(C)=CC1CN(C)C1CCCCC1 (centres unmarked) | 3.12 µg/mL
2) CCC1OC(=O)CC(O)C(C)C(OC2OC(C)CC(N(C)C)C2O)C(CC=O)CC(C)C(=O)C=CC(C)=CC1CN1CCOCC1 (centres unmarked) | 25 µg/mL
3) CCC1OC(=O)CC(O)C(C)C(OC2OC(C)CC(N(C)C)C2O)C(CC=O)CC(C)C(=O)C=CC(C)=CC1CN(CC)C(=O)OC (centres unmarked) | 12.5 µg/mL
4) CC[C@H]1OC(=O)C[C@@H](O)[C@H](C)[C@@H](O[C@@H]2O[C@H](C)[C@@H](O[C@H]3C[C@@](C)(O)[C@@H](O)[C@H](C)O3)[C@H](N(C)C)[C@H]2O)[C@@H](CC=O)C[C@@H](C)C(=O)/C=C/C(C)=C/[C@@H]1CO[C@@H]1O[C@H](C)[C@@H](O)[C@@H](OC)[C@H]1OC | > 100 µg/mL
5) CCC1OC(=O)CC(O)C(C)C(OC2OC(C)CC(N(C)C)C2O)C(CC=O)CC(C)C(=O)C=CC(C)=CC1CN(C)C (centres unmarked) | 0.39 µg/mL
